Biological target: homocitrate synthase ScLys20 S385F variant (Saccharomyces cerevisiae, UniProt P48570, S385F)
Construct: N-terminal His-tagged recombinant ScLys20
Sequence (P48570 1-428 S385F): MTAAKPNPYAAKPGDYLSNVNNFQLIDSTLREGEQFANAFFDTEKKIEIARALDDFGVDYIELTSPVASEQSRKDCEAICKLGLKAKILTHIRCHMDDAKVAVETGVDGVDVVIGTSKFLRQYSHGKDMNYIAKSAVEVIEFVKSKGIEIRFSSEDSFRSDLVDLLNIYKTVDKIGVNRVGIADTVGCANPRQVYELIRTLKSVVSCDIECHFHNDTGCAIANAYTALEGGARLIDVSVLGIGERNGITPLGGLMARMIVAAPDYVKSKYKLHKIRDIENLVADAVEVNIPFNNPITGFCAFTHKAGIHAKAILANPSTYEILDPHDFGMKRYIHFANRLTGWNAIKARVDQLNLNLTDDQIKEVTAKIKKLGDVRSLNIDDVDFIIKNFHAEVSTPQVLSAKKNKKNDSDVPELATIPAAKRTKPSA
Test: DCPIP-coupled HCS activity assay with purified enzyme ([…] 2-OG, […] AcCoA)
assay readout: IC50 (µM)
Answers are plain numbers, in µM.

Output measured IC50 for this item: `NCCCC[C@H](N)C(=O)O` 2000
